Target: T1, human DR3 (TNFRSF25) expressed on cells (human, UniProt Q93038 25-417)
T1 sequence: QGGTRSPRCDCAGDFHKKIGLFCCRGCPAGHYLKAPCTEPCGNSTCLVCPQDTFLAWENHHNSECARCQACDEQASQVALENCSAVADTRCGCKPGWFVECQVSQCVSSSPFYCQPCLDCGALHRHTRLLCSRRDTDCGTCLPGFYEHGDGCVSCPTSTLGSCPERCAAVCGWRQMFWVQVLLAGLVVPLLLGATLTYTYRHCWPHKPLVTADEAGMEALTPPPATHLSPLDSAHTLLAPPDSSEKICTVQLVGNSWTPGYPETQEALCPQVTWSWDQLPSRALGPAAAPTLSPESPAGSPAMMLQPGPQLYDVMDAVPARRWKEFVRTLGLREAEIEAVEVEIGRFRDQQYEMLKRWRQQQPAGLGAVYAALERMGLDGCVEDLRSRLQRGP
Experiment: cell-based or functional assay
Known Signal (FLU) of a selection of binders
Provide the reading as a plain figure in FLU.

Here are 2 binders together with their reported answers.
Request: Endpoint output: Signal (FLU) of VHg10/mVL (antibody, human IgG1, V domains shown) VH: EVQLVESGGGLVQPGGSLRLSCAASGFTFSSYAMSWVRQAPGKGLEWVSTISDGDSYSYFPDSVKDRFTISRDNSKNTLYLQMNSLRAEDTAVYYCARDRIYGSVQYYAMDYWGQGTLVTVSS VL: DIVLTQSPASLAVSLGQRATISCRASESVEFSGTSLMQWYQQRPGLPPKLLIYAASNVESGVPARFSGSGSGTDFSLNIHPVEEDDIAMYFCQQSRKLPYTFGGGTKLEIN . Value?
Result: 3.2e+06

Request: Query (binder): VHg5/VLg6 (antibody, human IgG1, V domains shown) VH: QVQLQQSGGGLVQAGGSLRLSCAASGFTFTSYAMSWVRQAPGKGLEWVATISDGDSYSYFPDSVKDRFIISRDNAKNSLFLQMNSLRAEDTAVYYCARDRIYGSVQYYAMDYWGRGTLVTVSS VL: DVVMTQSPPSLPVTPGEPASISCRASESVEFSGTSLMQWYLQKPGQSPQVLIYAASNVESGVPDRFSGSGSGTDFTLKISRVEAEDVGVYYCQQSRKLPYTFGQGTRLEIK ; field requested: Signal (FLU)
Result: 387000

Continuing:
Request: Signal (FLU) for VHg6/VLg4 (antibody, human IgG1, V domains shown, human IgG1) VH: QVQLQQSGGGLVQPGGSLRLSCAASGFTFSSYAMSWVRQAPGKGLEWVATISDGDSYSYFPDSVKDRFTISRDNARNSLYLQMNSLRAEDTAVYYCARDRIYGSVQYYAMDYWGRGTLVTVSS VL: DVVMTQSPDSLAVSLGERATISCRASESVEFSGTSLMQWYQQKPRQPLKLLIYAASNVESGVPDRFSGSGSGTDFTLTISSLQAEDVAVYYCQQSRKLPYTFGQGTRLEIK ?
Result: 2.68e+06
